Values were extracted from the supplement of paper PMC9170038.

Each item that follows carries a reported apparent KD of MS2 coat protein.
# System: MS2 coat protein
# experiment-description: apparent KD of MS2 coat protein, switch ON state; designed switch direction (-1 OFF switch, 1 ON switch): -1; higher = weaker reporter binding
# measurement-context: FMN input: 0 or 200 uM; Eterna round: R93 (includes R88 designs)

sequence-chain: AACAUGUCAGGAUAUGUACGAAAAAAUAAAAAAAUAAAAGUACAGAAGGGACAUGAGGAUCACCCAUGUCAGGG [EX4 393: Minimal 6]
apparent KD of MS2 coat protein (nM): 100
//
sequence-chain: AAGAAAGCAGGAUAUACAUGAGGAUCACCCAUGUAAAAGAAAGAAGGGAAAGAGAAAAGUAGAAGGGCUAAGAA [Wehemibre Necho II]
apparent KD of MS2 coat protein (nM): 20.9
//
sequence-chain: AAAAAGGGAGGAUAUACAUGAGGAUCACCCAUGUAAAACGCGCCAACAAAGAAACAAAGUAGAAGGCCCAAAAA [Default title]
apparent KD of MS2 coat protein (nM): 17.3
//
sequence-chain: AAAAAGUCAGGAUAUCGGAAAAUAAAAAUAAAAAUAAAAAACGAGAAGGGACAUGAGGAUCACCCAUGUAUGAC [Mat - Exclusion 4 - Mayanna - D114]
apparent KD of MS2 coat protein (nM): 27.6
//
sequence-chain: AAGAAGGGAGGAUAUACAUAAAAGAAAGAAAAGAAAAGAAAACAUGAGGAUCACCCAUGUAGAAGGCCCAAGAA [EteRNA is fun!]
apparent KD of MS2 coat protein (nM): 28.7
//
sequence-chain: AGCUAGUCAGGAUAUACGAACAUGUCGGAAGACGUGAAGGGACAUGAGGAUCACCCAUGUAGAAGGGACUAGCA [Mat - Exclusion 2 - JL mod - D3]
apparent KD of MS2 coat protein (nM): 33.1

* * *

# System: K4 kissing-loop RNA reporter
# experiment-description: apparent KD of K4 kissing-loop reporter; higher = weaker reporter binding
# measurement-context: Eterna round: R107; input ligand: none
Label t when apparent KD of K4 kissing-loop reporter >= 100 nM; otherwise f.

sequence-chain: CGUACGGUUUCUUUCUUUCCGUACGCGUGCCGAGGACCGGUACGGCCGCCACUCGCUACAGCCUAGUGAUGUUAGGCAAUUCUUU
group: t
--
sequence-chain: GCCUUAUAUCCAGCUACAGCUCUUUUUGGUCGAGGACCGGUACGGCCGCCACUCGAAUGAUAGUGAUGUUAUCGUUUUGUACUAA [JR_Nu_ExcTryptoA_Sub024]
group: t
--
sequence-chain: UGAUAGGACAGAAGGAGCGGAAGUGAUGUUUCCAAAAGGGAAGGUCGACAAAGUCGACCCUUCCAGGUAGGUCGCUGUCCUAUCU [ArgBX 9 #Palindromic #SwitchBubble #StaticStem]
group: f
--
sequence-chain: UCUUGUUCAUAGUGAUGUUAUGAGCUUAGAAAGGAUAUGAUCAACAUCAGAAGGUUCAAGGAUUCCCGACUCCAACUUCGGUUUC [theeternabot_sameState_KL_FMN_A_43]
group: t
--
sequence-chain: UAGCGUCUGCGAGGAUAUCGGAUUAGAGUGAUGUUCUAAAGACGCCCAGUGAUGUUGGAUGCGAUACGAGAAGGCGCUGGGCGCG [Same State FMN B GF7]
group: t

* * *

# Tested on: K4 kissing-loop RNA reporter;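 note: bound reporter read as fluorescence of individual clusters on recovered sequencing chips by microscopy, with normalized cluster intensities fitted with a binding model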
# experiment-description: apparent KD of K4 kissing-loop reporter; higher = weaker reporter binding
# measurement-context: Eterna round: R107; input ligand: FMN 200 uM
Each item that follows carries a reported apparent KD of K4 kissing-loop reporter.
observable: apparent KD of K4 kissing-loop reporter (nM)

sequence-chain: UGAUAGGACAGAAGGAGCGGAAGUGAUGUUUCCAAAAGGGAAGGUCGACAAAGUCGACCCUUCCAGGUAGGUCGCUGUCCUAUCU [ArgBX 9 #Palindromic #SwitchBubble #StaticStem]
observable: apparent KD of K4 kissing-loop reporter
meas-value: 75.9

sequence-chain: GAGUGGCAGACGGCCGCCACUCUUAGCAGCCAGCGGAGUGAUGUUCCGCCCGAGUGAUGUUCGGAGAGGACCGGGUUUGUUGUAA [Exclusion Tryptophan B GF 29]
observable: apparent KD of K4 kissing-loop reporter
meas-value: 119

sequence-chain: UCGGACCCUGGAGGAUAUGAGUCGAGUGAUGUUUGGCGGUCCAUGCCGGUGCGGCGUUAUGCCCUUUUAGAAGGCCAGGGUCCGA [#2 Exclusion - FMN B Attempt #13 (HarryS)]
observable: apparent KD of K4 kissing-loop reporter
meas-value: 287

sequence-chain: AAUACAGUACAACCGAGUGGAACACAAAUACGAGGACCGGUACGGCCGCCACUCGUGCAGAAUUUCAGUGAUGUUGAAAUACUGC [Exclusion Tryptophan A GF 6]
observable: apparent KD of K4 kissing-loop reporter
meas-value: 165

sequence-chain: AGUGAUGUGGGAAGGAGCGGUACAUGACUUCAGUGAUGUUGAAGUGAUGAUUUAGUGAUGUGCCAGGUAGGUCGCCUAGAUGUUA [KL-XARG-B7]
observable: apparent KD of K4 kissing-loop reporter
meas-value: 79.8

sequence-chain: GAUUUAGAGGCGGCCGCCACUAGUGAUGUUAGUGAUGUUUGAUACUGAAUAUAUCUGCGUUUAGAUAGGACCGGGCCAGAUGGAG [qzwqmullin]
observable: apparent KD of K4 kissing-loop reporter
meas-value: 234

* * *

# Tested on: MS2 coat protein
# experiment-description: apparent KD of MS2 coat protein; designed switch direction (-1 OFF switch, 1 ON switch): -1; higher = weaker reporter binding
# measurement-context: input ligand: microRNA oligo, concentration not stated

sequence-chain: UAUUAUAAUGUAGGAUAUCUGCACGUGUAGUGCAGAGAAGGACAUGAGGAUCACCCAUGUAUAGUAGCUUCGGCUACAUUAUUU [ENG1-B3] (Eterna round: R96, puzzle: Exclusion NG 1)
unit-descriptor: µM
apparent KD of MS2 coat protein: 0.0618
--
sequence-chain: GGUGUGGCAGGAUAUACAUCGAAGGGUGCAAAGGGCUCGGCACAUGAGGAUCACCCAUGUAGAAGGGCCUACCA [Beated] (Eterna round: R96, puzzle: Exclusion 2)
unit-descriptor: µM
apparent KD of MS2 coat protein: 0.0136
--
sequence-chain: UUGGUUGUGGUAGGAUAUCCGUUGGAAACCGUCGGAGAAGGACCACAGUCACUGGGUCUUUGUCUGGUGGAGUGGAAGAACCAU [pwkr exNG1 F6.20] (Eterna round: R96, puzzle: Exclusion NG 1)
unit-descriptor: µM
apparent KD of MS2 coat protein: 0.157
--
sequence-chain: UUAAAUCAUGUAGGAUAUGCGUGGCGAAGCUAUGCAGAAGGACAUGAGGAUCACCCAUGUGCUUCCGUCUGAGUACAGACGGUA [Mat - Exclusion NG 1 - Mod of JL - D11] (Eterna round: R96, puzzle: Exclusion NG 1)
unit-descriptor: µM
apparent KD of MS2 coat protein: 0.106
--
sequence-chain: UUAUUACAAGCAAGAUCCCACAUGAGGAUCACCCAUGUGCUCGUCUUAUAAGGUACAGUGACGAAAGUCACAGUACC [Sensor 3, v1 - 0] (Eterna round: R96, puzzle: Sensor v3, turn-off variant 1)
unit-descriptor: µM
apparent KD of MS2 coat protein: 0.369
--
sequence-chain: UCUCGAUGGCAAGGAUAUCCUACAUUGUUCUGGCCCGGGCAUGCUACAUGAGGAUCACCCAUGUGGGAGAAGGUGCGCCACUGC [Design 26] (Eterna round: R96, puzzle: Exclusion NG 2)
unit-descriptor: µM
apparent KD of MS2 coat protein: 0.055
--
sequence-chain: AGAGACAAUCUAGGAUAUGUGUAUGAAGAGUGCGCAGAAGGAGACAUGAGGAUCACCCAUGUACAGCGACAGAAGACGACAACC [Matt's Exclusion 2] (Eterna round: R96, puzzle: Exclusion NG 1)
unit-descriptor: µM
apparent KD of MS2 coat protein: 0.0362
--
sequence-chain: AAUGAGCGAGGAUAUGCAACUGUAUGACCUACGUGUGCCAGACAUGAGGAUCACCCAUGUAGAAGGUGCUUUCC [Israte] (Eterna round: R96, puzzle: Exclusion 2)
unit-descriptor: µM
apparent KD of MS2 coat protein: 0.0453
--
sequence-chain: UGAUCAGACCGAGGAUAUACAGGGAGCACGCACGUGAGUGCGUGCACUACAUGAGGAUCACCCAUGUAGAAGGCGGUCUGAUCU [JL ENG2 1.00] (Eterna round: R96, puzzle: Exclusion NG 2)
unit-descriptor: µM
apparent KD of MS2 coat protein: 0.0161
--
sequence-chain: UCGCUCCGUGUAGGAUAUCGCCGUAUGAUGCGGCGAGAAGGACAUGAGGAUCACCCAUGUAUGUUAUUAUCACGCGUGGCGCAA [Design 63] (Eterna round: R96, puzzle: Exclusion NG 1)
unit-descriptor: µM
apparent KD of MS2 coat protein: 0.012
--
sequence-chain: UUUUUAUAUGAAGGAUAUACUUAACAUGAGGAUCACCCAUGUGGUGUUGUGAGUGAGUGAGUUUAGUAGAAGGUCAAGUAUUAU [JMF's solution 38] (Eterna round: R96, puzzle: Exclusion NG 2)
unit-descriptor: µM
apparent KD of MS2 coat protein: 0.265
--
sequence-chain: AUCAGCUCGUGAGGAUAUAUAUAUACAUGAGGAUCACCCAUGUUAGAUCAGCUUCGGCAGUAUAUAUAGAAGGCACGAGCUGAU [ENG2/15-A2] (Eterna round: R96, puzzle: Exclusion NG 2)
unit-descriptor: µM
apparent KD of MS2 coat protein: 0.0906
--
sequence-chain: GAGCCAUCGUGAGAUGGCUAAUUUACAUGAGGAUCACCCAUGUAGGAUAUCGAUUGCUUUGCAGUCGAGAAGGACAUGUUUAAU [JL ENG3 3.98] (Eterna round: R96, puzzle: Exclusion NG 3)
unit-descriptor: µM
apparent KD of MS2 coat protein: 0.0283
--
sequence-chain: CUUAGACAUGAGGAUCACCCAUGUGAGGAUAUGAUGCGAUCGUGCUGACAUGAUCGCAUCAGAAGGCACAUAUG [JL-ex1-01 Hyphema Mod2] (Eterna round: R96, puzzle: Exclusion 1)
unit-descriptor: µM
apparent KD of MS2 coat protein: 0.101
--
sequence-chain: AAAGGAUGCCUAGGAUAUUGACUAAGAAAGGAUUAAGAAGGAGGAAAUAUAUGAGGGAUCCACAUGAGGAUCACCCAUGUACAC [Xesousbege] (Eterna round: R96, puzzle: Exclusion NG 1)
unit-descriptor: µM
apparent KD of MS2 coat protein: 0.315
--
sequence-chain: UCAAUUUUGACAGGAUAUAGUUUUUGUUUUUCUCUAGAAGGGUCUUUGCACAUGAGGAUCACCCAUGUUCUUUUUAUUUGCAUU [JR_ExcNG1_Sub015] (Eterna round: R96, puzzle: Exclusion NG 1)
unit-descriptor: µM
apparent KD of MS2 coat protein: 0.0423
--
sequence-chain: UGUUGUCGCGCAGGAUAUGAGGAUCACCCAUAUAGAGGAUAUGAAAAGAAGGCUCUGAGGAUUACCCAGAAGGGCGGGACAACU [pwkr exNG2 2xF5 2xFMN.21] (Eterna round: R96, puzzle: Exclusion NG 2)
unit-descriptor: µM
apparent KD of MS2 coat protein: 0.152
--
sequence-chain: AUUGUUUAUGUAGGAUAUGCCUGGCGUGCCUUCGCAGAAGGACAUGAGGAUCACCCAUGUAUUGCGGUCUGCGUUCAGAUCGCA [salish99_ExNG1_r4_024] (Eterna round: R96, puzzle: Exclusion NG 1)
unit-descriptor: µM
apparent KD of MS2 coat protein: 0.0452
